Tested on: Bacillus subtilis
Test: Antibacterial activity against Bacillus subtilis ATCC 6633 assessed as growth inhibition after 24 hr by two fold serial dilution method
Format: functional
Conditions: ATCC 6633, 24 h
value_kind: MIC (µg/mL)

COc1ccc(/C=N/N=c2\scc(C3=CC(=O)C=CC3=O)n2-c2ccccc2)cc1O	100
COc1ccc(/C=N/N=c2\scc(-c3cc(O)ccc3O)n2-c2ccc(C)cc2)cc1	50
COc1cc(/C=N/N=c2\scc(-c3cc(O)ccc3O)n2-c2ccccc2)ccc1O	50

(P) COc1cc(/C=N/N=c2\scc(C3=CC(=O)C=CC3=O)n2-c2ccc(Cl)cc2)ccc1O
(Q) COc1cc(/C=N/N=c2\scc(-c3cc(O)ccc3O)n2-c2ccc(C)cc2)ccc1O
# input Hi there! Just curious which has the higher MIC between P and Q . Write down the label attached to your selection.
# output P

(P) COc1cc(/C=N/N=c2\scc(-c3cc(O)ccc3O)n2-c2ccc(Cl)cc2)ccc1O
(Q) COc1ccc(/C=N/N=c2\scc(C3=CC(=O)C=CC3=O)n2-c2ccc(Cl)cc2)cc1
# input Looking at P and Q , which one comes out lower in MIC terms? Write down the label attached to your selection.
# output P

(1) COc1ccc(OC)c(/C=N/N=c2\scc(-c3cc(O)ccc3O)n2-c2ccc(Cl)cc2)c1
(2) COc1ccc(OC)c(/C=N/N=c2\scc(C3=CC(=O)C=CC3=O)n2-c2ccc(Cl)cc2)c1
(3) COc1ccc(OC)c(/C=N/N=c2\scc(C3=CC(=O)C=CC3=O)n2-c2ccc(C)cc2)c1
# input Put the compounds in ascending order of MIC. List the labels in the requested order.
# output 3, 1, 2
(3: 12.5 µg/mL, 1: 50 µg/mL, 2: 100 µg/mL)
